- procedure-details: qHTS assay to test for compound auto fluorescence at 590 nm (red) in HEK293 cells (AID 720679)
- condition-context: red autofluorescence 540/590 nm; series mostly up to 46 µM
Active and inactive are the calls of the source. Calls come from the whole dose curve; as a rule, active = well fitted curve in the direction sought with a large enough effect in the repeat runs; inconclusive = weak or mixed curves; inactive = flat fitted curve, though single readings scatter.
attribute-measured: fluorescence, % of fluorescent control

In the examples that follow, each entry is paired with its recorded fluorescence, % of fluorescent control.
CC(C)(O)C(=O)c1ccccc1 :: inactive
CC(C[N+](C)(C)C)OC(N)=O (configuration not stated) :: inactive
OCCOc1ccc(OCCO)cc1 :: inactive
CS(=O)(=O)O :: inactive
CC(=O)Nc1c(I)cc(I)c(C(=O)O)c1I :: inactive

Would you kindly share the measured fluorescence, % of fluorescent control for C[N+](C)(C)CC(O)CC(=O)[O-] (configuration not stated) ? inactive

Would you kindly share the measured fluorescence, % of fluorescent control for N=c1nc(N2CCCCC2)cc(N)n1O ? inactive

====

- target-desc: Glucocorticoid receptor (Homo sapiens) (UniProt P04150)
- Sequence (P04150 whole entry, looked up): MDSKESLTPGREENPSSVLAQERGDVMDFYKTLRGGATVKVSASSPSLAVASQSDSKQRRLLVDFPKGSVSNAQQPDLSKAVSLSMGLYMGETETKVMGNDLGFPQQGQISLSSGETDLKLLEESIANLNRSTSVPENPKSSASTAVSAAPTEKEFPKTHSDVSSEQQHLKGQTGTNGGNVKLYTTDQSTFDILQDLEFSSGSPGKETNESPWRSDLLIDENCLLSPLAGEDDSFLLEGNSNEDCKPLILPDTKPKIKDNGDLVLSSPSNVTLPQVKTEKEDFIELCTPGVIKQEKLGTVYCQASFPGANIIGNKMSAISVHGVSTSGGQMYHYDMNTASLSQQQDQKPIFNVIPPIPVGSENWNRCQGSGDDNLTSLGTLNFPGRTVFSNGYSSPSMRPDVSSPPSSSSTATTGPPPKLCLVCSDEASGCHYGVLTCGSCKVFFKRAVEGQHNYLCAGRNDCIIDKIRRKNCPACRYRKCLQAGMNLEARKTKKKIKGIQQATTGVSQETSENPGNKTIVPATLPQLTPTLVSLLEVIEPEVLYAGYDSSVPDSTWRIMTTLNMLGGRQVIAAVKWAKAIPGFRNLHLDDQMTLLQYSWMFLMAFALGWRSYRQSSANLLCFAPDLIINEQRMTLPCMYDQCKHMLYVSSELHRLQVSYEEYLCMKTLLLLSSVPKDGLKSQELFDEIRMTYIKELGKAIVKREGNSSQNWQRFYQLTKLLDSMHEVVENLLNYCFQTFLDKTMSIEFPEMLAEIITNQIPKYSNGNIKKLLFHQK
- procedure-details: qHTS assay to identify small molecule agonists of the glucocorticoid receptor (GR) signaling pathway (AID 720691)
- condition-context: GR-bla HeLa, beta-lactamase reporter ratio, 18 h; series mostly up to 62.4 µM
Inconclusive results are not listed. Activity calls are given as the source filed them. The call rests on the fitted dose curve; in most records, active means well fitted activation curve with a large enough effect in the signal ratio in the repeat runs (not every such curve was filed as active); inconclusive means weak or mixed curves, or effect the other way; inactive means no such curve, though single readings can be large or run the other way; the % refers to the signal ratio.
Outcome (select one): active, inactive

Here's what some known entries look like.
COC(=O)c1c(Cl)c(Cl)c(C(=O)OC)c(Cl)c1Cl :: inactive
Nc1ccc(S(=O)(=O)Nc2ccnn2-c2ccccc2)cc1 :: inactive
Nc1c2c(nc3ccccc13)CCCC2O (stereo not given) :: inactive
CCO/C([O-])=N/c1c[n+](N2CCOCC2)no1 :: inactive
C[C@H]1C[C@@H](O)CC(C)(C)C1 :: inactive

For COc1nc(N)nc2c1ncn2[C@@H]1O[C@H](CO)[C@@H](O)[C@@H]1O , which call appears in the assay record? inactive

For CC(C)=CCCC(C)CC(=O)O (stereo not given) , which call appears in the assay record? inactive

====

- procedure-details: qHTS RealTime-Glo MT Cell Viability Assay in HepG2 cells - 8 hour (AID 1224873); note: nearly all actives have a fitted effect of over 55% in size
- condition-context: RealTime-Glo luminescence; series mostly up to 76.8 µM
Results filed as inconclusive are left out. Calls of active or inactive are those of the source. Calls follow the shape of the dose curve; as a rule, active = well fitted cell-killing curve with a large enough effect in the repeat runs; inconclusive = weak or mixed curves; inactive = flat fitted curve, though single readings scatter.
attribute-measured: viability change, negative = cytotoxic

In the examples that follow, each entry is paired with its recorded viability change, negative = cytotoxic.
O=C(O)c1ccccc1OP(=O)(O)O :: inactive
O=C(CCCN1CCN(c2ccccn2)CC1)c1ccc(F)cc1 :: inactive
CCO/C([O-])=N/c1c[n+](N2CCOCC2)no1 :: inactive
CCC=O :: inactive
CC(C)OC(=O)c1ccccc1 :: inactive

Would you kindly share the measured viability change, negative = cytotoxic for CN(C)CCCSc1ccccc1NC(=O)/C=C/c1ccccc1 ? inactive

Would you kindly share the measured viability change, negative = cytotoxic for CN1C(=O)N(C)C(O)C1O (centres undefined) ? inactive

Would you kindly share the measured viability change, negative = cytotoxic for CCOC(=O)CC(C)=O ? inactive

Would you kindly share the measured viability change, negative = cytotoxic for CCCCCSCCCCC ? inactive

Would you kindly share the measured viability change, negative = cytotoxic for O=C(O)CCCl ? inactive

Would you kindly share the measured viability change, negative = cytotoxic for CCn1ccnc1CC1COc2ccccc2O1 (centres undefined) ? inactive

Would you kindly share the measured viability change, negative = cytotoxic for FC1(F)C(F)(F)C(F)(F)C2(F)C(F)(F)C(F)(F)C(F)(F)C(F)(F)C2(F)C1(F)F (centres undefined) ? inactive

Would you kindly share the measured viability change, negative = cytotoxic for CN(C(=O)c1c(O)c2ccccc2n(C)c1=O)c1ccccc1 ? inactive

Would you kindly share the measured viability change, negative = cytotoxic for C=C[Si](OC(=C)C)(OC(=C)C)OC(=C)C ? inactive
